I'd appreciate it if you could supply Selectivity values for the items below.
# targetSystem: Adenosine receptors; A2a & A3 (Homo sapiens) (UniProt P0DMS8+P29274)
# testName: Relative binding affinity for human adenosine A2a and A3 receptors
# Format: protein assay

| compound | Selectivity |
| --- | --- |
| CCCn1c(=O)c2c(nc3[nH]c(-c4ccccc4)cn32)n(Cc2ccccc2)c1=O | > 9 |
| CCCn1c(=O)c2c(nc3[nH]c(C)c(C)n32)n(Cc2ccccc2)c1=O | > 28 |
| CCCn1c(=O)c2c(nc3n2CC(c2ccccc2)=C3)n(Cc2ccccc2)c1=O | > 5 |
| CCCn1c(=O)c2c(nc3n2CC(C)=C3)n(Cc2ccccc2)c1=O | > 125 |
| CCCn1c(=O)c2c(nc3[nH]c(-c4ccc(OC)cc4)cn32)n(Cc2ccccc2)c1=O | > 18 |

Each of the following entries comes with a recorded value; kindly state Selectivity for each.
1. CCCn1c(=O)c2c(nc3[nH]c(C4CCCCC4)cn32)n(Cc2ccccc2)c1=O
2. CCCn1c(=O)c2c(nc3n2C(C)C(C)=C3)n(Cc2ccccc2)c1=O (stereo not given)
3. CCCn1c(=O)c2c(nc3[nH]c(CC)cn32)n(Cc2ccccc2)c1=O
4. CCCn1c(=O)c2c(nc3[nH]c(-c4ccc(F)cc4)cn32)n(Cc2ccccc2)c1=O
5. CCCn1c(=O)c2c(nc3[nH]c(CC)c(C)n32)n(Cc2ccccc2)c1=O

1: > 2; 2: > 13; 3: > 67; 4: > 45; 5: > 17
